# system: T1, PSMA Fab (biotinylated (site not stated))
# T1 construct: Biotinylated PSMA Fab captured on neutravidin coated plates for the clonal phage ELISA; also called Anti-PSMA Fab; 006 PSMA Fab
# method description: clonal phage supernatant ELISA on biotinylated PSMA Fab captured on neutravidin; anti-M13-HRP detection
property label: Phage binding ELISA signal, Anti-PSMA Fab
Numbers only.

Take a look at these entries with their results.
{"binder": "DFAYCKPEWMCVGF (Clonal phage of the peptide-180 library; not shown: pIII filament protein of the bacteriophage, fused to the peptide) [Phage-3102]", "result": 2.09}
{"binder": "QEIRCEPIWMCWGF (Clonal phage of the peptide-180 library; not shown: pIII filament protein of the bacteriophage, fused to the peptide) [Phage-3105]", "result": 2.09}
{"binder": "PVAVCKPEWMCIGF (Clonal phage of the peptide-180 library; not shown: pIII filament protein of the bacteriophage, fused to the peptide) [Phage-3107]", "result": 2.08}
{"binder": "VEAMCKPWWMCEGL (Clonal phage of the peptide-180 library; not shown: pIII filament protein of the bacteriophage, fused to the peptide) [Phage-3109]", "result": 2.08}
{"binder": "IEIMCMPRWMCDGF (Clonal phage of the peptide-180 library; not shown: pIII filament protein of the bacteriophage, fused to the peptide) [Phage-3111]", "result": 2.08}
{"binder": "NGVVCQPPWMCFGF (Clonal phage of the peptide-180 library; not shown: pIII filament protein of the bacteriophage, fused to the peptide) [Phage-3113]", "result": 2.08}
{"binder": "EPQMCIPRWMCDGF (Clonal phage of the peptide-180 library; not shown: pIII filament protein of the bacteriophage, fused to the peptide) [Phage-3112]", "result": 2.08}
{"binder": "GEILCRPAWMCYGF (Clonal phage of the peptide-180 library; not shown: pIII filament protein of the bacteriophage, fused to the peptide) [Phage-3103]", "result": 2.09}
{"binder": "GEVLCRPAWMCSGF (Clonal phage of the peptide-180 library; not shown: pIII filament protein of the bacteriophage, fused to the peptide) [Phage-3104]", "result": 2.09}
{"binder": "SEVVCVPTWMCTGF (Clonal phage of the peptide-180 library; not shown: pIII filament protein of the bacteriophage, fused to the peptide) [Phage-3108]", "result": 2.08}

Answer for every listed entry: what is its Phage binding ELISA signal, Anti-PSMA Fab? The entries follow.
1. VPRYCVPQWMCAAF (Clonal phage of the peptide-180 library; not shown: pIII filament protein of the bacteriophage, fused to the peptide) [Phage-3114]
2. NPMYCKPSWMCEGF (Clonal phage of the peptide-180 library; not shown: pIII filament protein of the bacteriophage, fused to the peptide) [Phage-3106]
3. VVQLCRPSWMCQGF (Clonal phage of the peptide-180 library; not shown: pIII filament protein of the bacteriophage, fused to the peptide) [Phage-3110]

2.08
2.08
2.08
